- systemName: Estrogen receptor (Homo sapiens) (UniProt P03372)
- Sequence (P03372 whole entry, looked up): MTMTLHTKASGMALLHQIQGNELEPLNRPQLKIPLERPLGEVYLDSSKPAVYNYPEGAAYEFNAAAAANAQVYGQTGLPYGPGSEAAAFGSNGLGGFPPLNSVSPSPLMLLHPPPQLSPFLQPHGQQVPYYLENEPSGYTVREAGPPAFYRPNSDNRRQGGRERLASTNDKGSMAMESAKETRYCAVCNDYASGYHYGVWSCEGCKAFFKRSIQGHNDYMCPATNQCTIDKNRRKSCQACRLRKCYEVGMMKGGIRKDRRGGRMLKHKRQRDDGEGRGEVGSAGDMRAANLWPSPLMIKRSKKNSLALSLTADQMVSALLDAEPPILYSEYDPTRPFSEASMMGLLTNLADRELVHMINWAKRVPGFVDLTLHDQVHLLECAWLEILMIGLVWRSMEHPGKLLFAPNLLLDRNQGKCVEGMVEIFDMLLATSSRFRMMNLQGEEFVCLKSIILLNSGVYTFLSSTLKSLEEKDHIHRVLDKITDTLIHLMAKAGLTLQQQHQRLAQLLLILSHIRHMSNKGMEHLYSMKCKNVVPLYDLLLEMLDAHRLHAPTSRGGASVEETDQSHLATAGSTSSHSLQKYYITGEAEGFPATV
- assayText: ERalpha ligand binders by competition, primary screen, cell-based, Cos7 ERalpha-GFP, flow cytometry (AID 1211)
- conditionNotes: fluorescent ligand competition, at 10 µM
Active and inactive are the calls of the source. No rule for the calls is given here.
Entry note: the call must match one of Y = active, N = inactive

Reference set (4 entries):
compound	systemName	categoryLabel
CCOC(=O)C1=c2/c(=C/c3ccccc3OC)c(N)c(C#N)n2C(=O)C(c2ccccc2OC)S1 (stereo unspecified)	Estrogen receptor (Homo sapiens) (UniProt P03372)	N
CC(=O)Nc1ccc(N=Cc2nc(-c3ccc(C)cc3)oc2O)cc1	Estrogen receptor (Homo sapiens) (UniProt P03372)	N
Cc1cc([N+](=O)[O-])c2c(c1C)C1C=CCC1C(c1ccccn1)N2 (stereo unspecified)	Estrogen receptor (Homo sapiens) (UniProt P03372)	Y
CCOc1[nH]c(/N=C/c2ccco2)c(C#N)c1C#N	Estrogen receptor (Homo sapiens) (UniProt P03372)	N

Lookup: Entry `Cc1nn(-c2ccc(Cl)cc2)c2sc(C(=O)N3CCN(c4ccccn4)CC3)cc12` : call = ?
Found: N

Lookup: Entry `Cn1nnnc1SCC(=O)Nc1nc(-c2ccccc2)c(-c2ccccc2)o1` : call = ?
Found: N

Lookup: Entry `Oc1ccc(-c2cn3cc(C(F)(F)F)ccc3n2)cc1` : call = ?
Found: N
